This listing pairs compounds with measured IC50.
Test system: HFL-1 cells
Assay: IL8 assay in the presence of Human Serum Albumin
Type: cell-based
Settings: HFL1, S1P (5 μM) induced IL-8, HFL-1 cells, with 2% HSA, read-out: HSA IL8 EC50
readout-name: IC50 (nM)

[
  {
    "compound": "CN(C)c1cc(CNC(=O)Nc2cc(Cl)nc(OCC(F)F)c2)nnc1-c1cn(C)nc1C(F)(F)F [Compound 63]",
    "value-measured": 829
  },
  {
    "compound": "CCOc1ncc(NC(=O)NCc2cc(C)c(N3CC(C)OC(C)C3)nn2)cc1C(F)(F)F (centres unmarked) [Compound 85]",
    "value-measured": 9950
  },
  {
    "compound": "CCOc1cc(N/C(=N/C#N)NCc2cc(C)c(-c3cn(C)nc3C(F)(F)F)nn2)cc(C(F)(F)F)n1 [Compound 76]",
    "value-measured": 111
  },
  {
    "compound": "CCOc1cc(NC(=O)NCc2cc(C)c(N3CCCc4nn(C)cc43)nn2)cc(C(F)(F)F)n1 [Compound 96]",
    "value-measured": 2270
  },
  {
    "compound": "CCOc1cc(NC(=O)NCc2cc(C)c(N3CC(C)OC(C)C3)nn2)cc(Cl)n1 (centres unmarked) [Compound 82]",
    "value-measured": 730
  },
  {
    "compound": "CCOc1nc(C)cc(NC(=O)NCc2cc(C)c(-c3cn(C)nc3C(F)(F)F)nn2)c1C#N [Compound 77]",
    "value-measured": 29900
  },
  {
    "compound": "Cc1cc(CNC(=O)Nc2cc(Cl)nc(OCC(F)F)c2)nnc1N1CCOC(CN(C)C)C1 (centres unmarked) [Compound 97]",
    "value-measured": 1800
  },
  {
    "compound": "CCOc1nc(C(F)(F)F)cc(N/C(=N/C#N)NCc2cc(C)c(-c3cn(C)nc3C(F)(F)F)nn2)c1C [Compound 80]",
    "value-measured": 239
  }
]

Data origin, for the record: patent US20190388421A1
